- TESTED SYSTEM: Core antigen (Hepatitis B virus) (UniProt Q03732)
- Sequence (Q03732 as listed by the source): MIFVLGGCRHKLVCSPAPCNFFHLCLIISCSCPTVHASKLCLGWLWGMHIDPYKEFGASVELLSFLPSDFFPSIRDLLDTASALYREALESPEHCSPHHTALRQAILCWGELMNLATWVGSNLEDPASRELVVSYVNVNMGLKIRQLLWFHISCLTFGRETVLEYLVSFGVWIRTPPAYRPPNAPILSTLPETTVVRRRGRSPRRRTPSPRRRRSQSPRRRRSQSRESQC
- TEST NAME: Inhibition of Hepatitis B virus capsid formation at 100 uM treated during cell-free wild type HBV Cp synthesis using wheat germ lysates and HBV Cp RNA by Native capsid assay based western blot analysis
- Assay type: subcellular
Calls of active or inactive are those of the source. The rule behind the calls is not given here. Residues, ends and D or L forms follow the SMILES beside them.
QUANTITY NAME: inhibition

The examples below pair each entry with its known result.
MOLECULE	RESULT
CC[C@H](C)[C@H](NC(=O)[C@H](C)NC(=O)[C@H](CCC(N)=O)NC(=O)[C@@H]1CCCN1C(C)=O)C(=O)N[C@@H](CC(C)C)C(=O)N[C@@H](CS)C(=O)N[C@@H](Cc1c[nH]c2ccccc12)C(=O)NCC(=O)N[C@@H](CCC(=O)O)C(=O)N[C@@H](CC(C)C)C(=O)N[C@@H](CCSC)C(=O)N[C@@H](CC(N)=O)C(=O)N[C@@H](CC(C)C)C(=O)N[C@@H](C)C(=O)N[C@H](C(N)=O)[C@@H](C)O	inactive
CSCC[C@H](NC(C)=O)C(=O)N[C@@H](CC(N)=O)C(=O)N[C@@H](CC(C)C)C(=O)N[C@@H](C)C(=O)N[C@H](C(=O)N[C@@H](Cc1c[nH]c2ccccc12)C(=O)N[C@H](C(=O)NCC(=O)N[C@@H](CO)C(=O)N[C@@H](CC(N)=O)C(=O)N[C@@H](CC(C)C)C(=O)N[C@@H](CCC(=O)O)C(=O)N[C@@H](CC(=O)O)C(=O)N1CCC[C@H]1C(=O)N[C@@H](C)C(N)=O)C(C)C)[C@@H](C)O	inactive
CC[C@H](C)[C@H](NC(=O)[C@H](C)NC(=O)[C@H](CCC(N)=O)NC(=O)[C@@H]1CCCN1C(=O)[C@H](CC(C)C)NC(=O)[C@H](C)NC(=O)[C@@H](NC(=O)[C@H](Cc1c[nH]cn1)NC(=O)[C@H](Cc1c[nH]cn1)NC(=O)[C@@H]1CCCN1C(=O)[C@H](CO)NC(=O)[C@H](CS)NC(=O)[C@H](Cc1c[nH]cn1)NC(=O)[C@@H](N)CCC(=O)O)[C@@H](C)O)C(=O)N[C@@H](CC(C)C)C(N)=O (H-EHCSPHHTALPQAIL-NH2)	inactive
CC(C)C[C@H](NC(=O)[C@H](Cc1ccc(O)cc1)NC(=O)[C@H](CCC(=O)O)NC(=O)[C@H](CC(C)C)NC(=O)[C@@H](NC(=O)[C@@H](NC(=O)[C@H](CCC(=O)O)NC(=O)[C@H](CCCNC(=N)N)NC(=O)CNC(=O)[C@H](Cc1ccccc1)NC(=O)[C@@H](NC(=O)[C@H](CC(C)C)NC(=O)[C@H](CS)NC(=O)[C@@H](N)CO)[C@@H](C)O)[C@@H](C)O)C(C)C)C(=O)N[C@H](C(N)=O)C(C)C (H-SCLTFGRETVLEYLV-NH2)	inactive

Next molecule, inhibition to be filled in.
Q: So what's the measured inhibition for this one? N=C(N)NCCC[C@H](NC(=O)[C@@H]1CCCN1)C(=O)N[C@@H](CCCNC(=N)N)C(=O)N[C@@H](CCCNC(=N)N)C(=O)N[C@@H](CCCNC(=N)N)C(=O)N[C@@H](CO)C(=O)N[C@@H](CCC(N)=O)C(=O)N[C@@H](CO)C(=O)N[C@@H](CCCNC(=N)N)C(=O)N[C@@H](CCC(=O)O)C(=O)N[C@@H](CO)C(=O)N[C@@H](CCC(N)=O)C(=O)N[C@@H](CS)C(N)=O (H-PRRRRSQSRESQC-NH2)
Result: inactive
